# test.method.notes: in vitro
# condition: human, Caco-2
Below, each of the compounds is paired with its reported Papp A→B value.
Reply numerically in nm/s, unit not repeated.

Provide one value: measured Papp A→B of NC(=O)n1cc(NC(=O)N2[C@@H]3C[C@@H]3C[C@H]2C(=O)Nc2cccc(C(F)(F)F)c2F)c2ccccc21
100

Provide one value: measured Papp A→B of NC(=O)c1nn(CC(=O)N2[C@@H]3C[C@@H]3C[C@H]2C(=O)Nc2cccc(Br)n2)c2ccccc12
153

Provide one value: measured Papp A→B of NC(=O)n1cc(NC(=O)N2[C@@H]3C[C@@H]3C[C@H]2C(=O)Nc2cccc(C(F)(F)F)n2)c2ccccc21
113

Provide one value: measured Papp A→B of NC(=O)n1cc(NC(=O)N2[C@@H]3C[C@@H]3C[C@H]2C(=O)Nc2cccc(Br)n2)c2ccccc21
96

* * *

# assay.system: Cytochrome P450 3A4 (Homo sapiens)
quantity: pIC50
Notebook: values listed as pIC50 are -log10 of the concentration (mol/L).

Determine reported pIC50 for NC(=O)c1nn(CC(=O)N2[C@@H]3C[C@@H]3C[C@H]2C(=O)Nc2cccc(Br)n2)c2ccccc12 ; test system: Cytochrome P450 3A4 (Homo sapiens).
4.77

* * *

# test.method.notes: in vitro
# condition: human, Caco-2
quantity: Papp A→B (×10⁻⁶ cm/s)
Reply numerically in ×10⁻⁶ cm/s, unit not repeated.

In [3]: df
Out[3]:
                           structure_string  unit_abbreviation  reported_result
0  NC(=O)n1cc(NC(=O)N2[C@@H]3C[C@@H]3C[C@H]2C(=O)Nc2cccc(OC(F)(F)F)c2)c2ccccc21         ×10⁻⁶ cm/s              4.5

Provide one value: measured Papp A→B of NC(=O)n1cc(NC(=O)N2CCC[C@H]2C(=O)Nc2cccc(OC(F)(F)F)c2)c2ccccc21
6.1

Provide one value: measured Papp A→B of NC(=O)n1cc(NC(=O)N2C[C@@H](O)C[C@H]2C(=O)Nc2cccc(OC(F)(F)F)c2)c2ccccc21
0.77

Provide one value: measured Papp A→B of NC(=O)n1cc(NC(=O)N2[C@@H]3C[C@@H]3C[C@H]2C(=O)Nc2cccc(OC(F)(F)F)c2F)c2ccccc21
5.1

Provide one value: measured Papp A→B of NC(=O)n1cc(NC(=O)N2C[C@@H](N)C[C@H]2C(=O)Nc2cccc(OC(F)(F)F)c2)c2ccccc21
2.1

Provide one value: measured Papp A→B of NC(=O)n1cc(NC(=O)N2C[C@H](F)C[C@H]2C(=O)Nc2cccc(OC(F)(F)F)c2)c2ccccc21
0.75

* * *

# test.method.notes: Drug uptake in Brown Norway rat neural retina at 10 mg/kg, po administered as single dose via gavage after 6 hrs by LC-MS/MS analysis
# Format: ADME, organism-based
# condition: read-out: Drug uptake
quantity: concentration at 6 h (µM)
Reply numerically in µM, unit not repeated.

Provide one value: measured concentration at 6 h of NC(=O)c1nn(CC(=O)N2[C@@H]3C[C@@H]3C[C@H]2C(=O)Nc2cccc(Br)n2)c2ccccc12
0.09

* * *

# assay.system: Voltage-gated inwardly rectifying potassium channel KCNH2 (Homo sapiens)
pIC50: −log10 of the molar value.
quantity: pIC50

Provide one value: measured pIC50 of NC(=O)c1nn(CC(=O)N2[C@@H]3C[C@@H]3C[C@H]2C(=O)Nc2cccc(Br)n2)c2ccccc12
< 4.52

* * *

Below, each of the molecules is paired with its reported fraction unbound value.
# test.method.notes: Protein binding in human plasma
# Format: ADME, cell-free
# condition: read-out: PPB (converted)
Would you mind answering with just the numeric figure?

Sample records with fraction unbound:
                           structure_string          quantity  reported_result
0  NC(=O)c1nn(CC(=O)N2[C@@H]3C[C@@H]3C[C@H]2C(=O)Nc2cccc(Br)n2)c2ccccc12  fraction unbound             0.08
1  NC(=O)n1cc(NC(=O)N2[C@@H]3C[C@@H]3C[C@H]2C(=O)Nc2cccc(Br)n2)c2ccccc21  fraction unbound            0.036
2  NC(=O)c1cn(CC(=O)N2[C@@H]3C[C@@H]3C[C@H]2C(=O)Nc2cccc(Br)n2)c2ccccc12  fraction unbound            0.131

Lab note: next molecule to report on.
Provide one value: measured fraction unbound of NC(=O)n1cc(NC(=O)N2[C@@H]3C[C@@H]3C[C@H]2C(=O)Nc2cccc(C(F)(F)F)n2)c2ccccc21
0.048

* * *

# test.method.notes: Cmax in Sprague-Dawley rat plasma at 10 mg/kg, po by LC-MS/MS analysis
# Format: ADME, organism-based
# Set-up: dose 10 mg/kg, route oral
quantity: Cmax (nM)
Reply numerically in nM, unit not repeated.

Provide one value: measured Cmax of NC(=O)n1cc(NC(=O)N2CCC[C@H]2C(=O)Nc2cccc(OC(F)(F)F)c2)c2ccccc21
1170

* * *

# test.method.notes: Drug uptake in Brown Norway rat plasma at 10 mg/kg, po administered as single dose via gavage after 6 hrs by HPLC-MS/MS analysis
# Type: ADME, organism-based
quantity: concentration at 6 h (nM)
Reply numerically in nM, unit not repeated.

Provide one value: measured concentration at 6 h of NC(=O)c1nn(CC(=O)N2[C@@H]3C[C@@H]3C[C@H]2C(=O)Nc2cccc(Br)n2)c2ccccc12
360

* * *

Below, each of the molecules is paired with its reported solubility thermodynamic value.
# test.method.notes: Aqueous equilibrium solubility of compound in pH 6.8 solution by high throughput assay
# Type: physicochemical
# condition: aqueous pH 6.8 solution
Reply numerically in µM, unit not repeated.

Sample records with solubility thermodynamic:
In [3]: df
Out[3]:
                           structure_string  unit_abbreviation  reported_result
0  NC(=O)n1cc(NC(=O)N2[C@@H]3C[C@@H]3C[C@H]2C(=O)Nc2cccc(C(F)(F)F)n2)c2ccccc21                 µM              110
1  NC(=O)n1cc(NC(=O)N2[C@@H]3C[C@@H]3C[C@H]2C(=O)Nc2cccc(Br)n2)c2ccccc21                 µM               57
2  NC(=O)n1cc(NC(=O)N2CCC[C@H]2C(=O)Nc2cccc(OC(F)(F)F)c2)c2ccccc21                 µM               17

Lab note: next molecule to report on.
Provide one value: measured solubility thermodynamic of NC(=O)n1cc(NC(=O)N2[C@@H]3C[C@@H]3C[C@H]2C(=O)Nc2cccc(OC(F)(F)F)c2F)c2ccccc21
10

* * *

# test.method.notes: Aqueous equilibrium solubility of compound in pH 6.8 solution by high throughput assay
# Type: physicochemical
# condition: aqueous pH 6.8 solution
Label MET when solubility thermodynamic is at or above 80 µM; anything below gets NOT MET.

Use these answered entries as a reference point.
>>> df
                           structure_string  assigned_label
0  NC(=O)n1cc(NC(=O)N2C[C@@H](O)C[C@H]2C(=O)Nc2cccc(OC(F)(F)F)c2)c2ccccc21         NOT MET
1  NC(=O)n1cc(NC(=O)N2C[C@H](F)C[C@H]2C(=O)Nc2cccc(OC(F)(F)F)c2)c2ccccc21         NOT MET
2  NC(=O)n1cc(NC(=O)N2C[C@@H](N)C[C@H]2C(=O)Nc2cccc(OC(F)(F)F)c2)c2ccccc21             MET
3  NC(=O)n1cc(NC(=O)N2[C@@H]3C[C@@H]3C[C@H]2C(=O)Nc2cccc(C(F)(F)F)c2F)c2ccccc21         NOT MET

Dear colleague, could you confirm whether NC(=O)c1nn(CC(=O)N2[C@@H]3C[C@@H]3C[C@H]2C(=O)Nc2cccc(Br)n2)c2ccccc12 has solubility thermodynamic at or above 80 µM?
MET

Dear colleague, could you confirm whether NC(=O)n1cc(NC(=O)N2[C@@H]3C[C@@H]3C[C@H]2C(=O)Nc2cccc(OC(F)(F)F)c2)c2ccccc21 has solubility thermodynamic at or above 80 µM?
NOT MET

* * *

# test.method.notes: Drug uptake in Brown Norway rat posterior eye cup at 10 mg/kg, po administered as single dose via gavage after 6 hrs by LC-MS/MS analysis
# Type: ADME, organism-based
# condition: read-out: Drug uptake
quantity: concentration at 6 h (nM)
Reply numerically in nM, unit not repeated.

Provide one value: measured concentration at 6 h of NC(=O)c1nn(CC(=O)N2[C@@H]3C[C@@H]3C[C@H]2C(=O)Nc2cccc(Br)n2)c2ccccc12
430

* * *

# test.method.notes: Apparent permeability from basolateral to apical side in human Caco2 cells
# Assay type: ADME, cell-based
# condition: Caco-2
Below, each of the molecules is paired with its reported Papp B→A value.
Reply numerically in ×10⁻⁶ cm/s, unit not repeated.

Sample records with Papp B→A:
>>> df
                           structure_string  quantity  reported_result
0  NC(=O)n1cc(NC(=O)N2[C@@H]3C[C@@H]3C[C@H]2C(=O)Nc2cccc(C(F)(F)F)n2)c2ccccc21  Papp B→A             14.2
1  NC(=O)n1cc(NC(=O)N2[C@@H]3C[C@@H]3C[C@H]2C(=O)Nc2cccc(OC(F)(F)F)c2)c2ccccc21  Papp B→A              5.7
2  NC(=O)n1cc(NC(=O)N2C[C@@H](N)C[C@H]2C(=O)Nc2cccc(OC(F)(F)F)c2)c2ccccc21  Papp B→A              5.1
3  NC(=O)n1cc(NC(=O)N2[C@@H]3C[C@@H]3C[C@H]2C(=O)Nc2cccc(Br)n2)c2ccccc21  Papp B→A             10.3
4  NC(=O)n1cc(NC(=O)N2[C@@H]3C[C@@H]3C[C@H]2C(=O)Nc2cccc(OC(F)(F)F)c2F)c2ccccc21  Papp B→A              6.5
5  NC(=O)n1cc(NC(=O)N2C[C@H](F)C[C@H]2C(=O)Nc2cccc(OC(F)(F)F)c2)c2ccccc21  Papp B→A                8
6  NC(=O)n1cc(NC(=O)N2[C@@H]3C[C@@H]3C[C@H]2C(=O)Nc2cccc(C(F)(F)F)c2F)c2ccccc21  Papp B→A                7
7  NC(=O)c1nn(CC(=O)N2[C@@H]3C[C@@H]3C[C@H]2C(=O)Nc2cccc(Br)n2)c2ccccc12  Papp B→A             18.1

Provide one value: measured Papp B→A of NC(=O)n1cc(NC(=O)N2C[C@@H](O)C[C@H]2C(=O)Nc2cccc(OC(F)(F)F)c2)c2ccccc21
17

Provide one value: measured Papp B→A of NC(=O)n1cc(NC(=O)N2CCC[C@H]2C(=O)Nc2cccc(OC(F)(F)F)c2)c2ccccc21
6.3
